- Tested on: Staphylococcus aureus
- assay: Antimicrobial activity against Staphylococcus aureus ATCC 29513 at 500 ug/ml after 24 hrs by cup plate method
- Assay type: functional
- testSettings: ATCC 29513, 24 h, read-out: IZ
recordedMetric: zone of inhibition at 500 µg/mL (mm)
Use mm as the unit, but write only the number.

Q: # lookup: zone of inhibition at 500 µg/mL of N#Cc1c(N)c2c(N)c3c(nc2oc1=O)OC(c1ccc(Cl)cc1)=CC3c1c(-c2ccccc2)[nH]c2ccccc12 (stereo not given)
A: 12

Q: Also Nc1n[nH]c2c1C(c1c(-c3ccccc3)[nH]c3ccc(Cl)cc13)C=C(c1ccccc1)O2 (stereo not given) , if possible.
A: 10

Q: Also Cc1ccc(C2=CC(c3c(-c4ccccc4)[nH]c4ccc(C)cc34)c3c(N)n[nH]c3O2)cc1 (stereo not given) , if possible.
A: 7

Q: Also Cc1ccc2[nH]c(-c3ccccc3)c(C3C=C(c4ccccc4)OC(N)=C3C#N)c2c1 (stereo not given) , if possible.
A: 5

Q: Also Nc1n[nH]c2c1C(c1c(-c3ccccc3)[nH]c3ccccc13)C=C(c1ccc(Cl)cc1)O2 (stereo not given) , if possible.
A: 5

Q: Also N#CC1=C(N)OC(c2ccccc2)=CC1c1c(-c2ccccc2)[nH]c2ccc(Cl)cc12 (stereo not given) , if possible.
A: 10

Q: Also N#Cc1c(N)c2c(N)c3c(nc2oc1=O)OC(c1ccccc1)=CC3c1c(-c2ccccc2)[nH]c2ccccc12 (stereo not given) , if possible.
A: 10

Q: Also Cc1ccc2[nH]c(-c3ccccc3)c(C3C=C(c4ccc(Cl)cc4)Oc4nc5oc(=O)c(C#N)c(N)c5c(N)c43)c2c1 (stereo not given) , if possible.
A: 13

Q: Also Cc1ccc(C2=CC(c3c(-c4ccccc4)[nH]c4ccc(C)cc34)c3c(N)nc(=S)[nH]c3O2)cc1 (stereo not given) , if possible.
A: 0

Q: Also Cc1ccc(C2=CC(c3c(-c4ccccc4)[nH]c4ccc(Cl)cc34)c3c(nc[nH]c3=O)O2)cc1 (stereo not given) , if possible.
A: 5

Q: Also Nc1nc(=O)[nH]c2c1C(c1c(-c3ccccc3)[nH]c3ccc(Cl)cc13)C=C(c1ccc(Cl)cc1)O2 (stereo not given) , if possible.
A: 13

Q: Also Cc1ccc2[nH]c(-c3ccccc3)c(C3C=C(c4ccc(Cl)cc4)Oc4nc[nH]c(=O)c43)c2c1 (stereo not given) , if possible.
A: 10

Q: Also O=c1[nH]cnc2c1C(c1c(-c3ccccc3)[nH]c3ccccc13)C=C(c1ccccc1)O2 (stereo not given) , if possible.
A: 10

Q: Also N#Cc1c(N)c2c(N)c3c(nc2oc1=O)OC(c1ccc(Cl)cc1)=CC3c1c(-c2ccccc2)[nH]c2ccc(Cl)cc12 (stereo not given) , if possible.
A: 12

Q: Also Nc1nc(=S)[nH]c2c1C(c1c(-c3ccccc3)[nH]c3ccc(Cl)cc13)C=C(c1ccc(Cl)cc1)O2 (stereo not given) , if possible.
A: 13

Q: Also Cc1ccc2[nH]c(-c3ccccc3)c(C3C=C(c4ccccc4)Oc4[nH]c(=O)nc(N)c43)c2c1 (stereo not given) , if possible.
A: 11

Q: Also Cc1ccc2[nH]c(-c3ccccc3)c(C3C=C(c4ccccc4)Oc4[nH]nc(N)c43)c2c1 (stereo not given) , if possible.
A: 6

Q: Also O=c1[nH]cnc2c1C(c1c(-c3ccccc3)[nH]c3ccc(Cl)cc13)C=C(c1ccc(Cl)cc1)O2 (stereo not given) , if possible.
A: 9

Q: Also Cc1ccc(C2=CC(c3c(-c4ccccc4)[nH]c4ccccc34)C(C#N)=C(N)O2)cc1 (stereo not given) , if possible.
A: 0

Q: Also Cc1ccc(C2=CC(c3c(-c4ccccc4)[nH]c4ccc(Cl)cc34)c3c(N)n[nH]c3O2)cc1 (stereo not given) , if possible.
A: 14

Q: Also Nc1nc(=S)[nH]c2c1C(c1c(-c3ccccc3)[nH]c3ccccc13)C=C(c1ccc(Cl)cc1)O2 (stereo not given) , if possible.
A: 10

Q: Also Cc1ccc(C2=CC(c3c(-c4ccccc4)[nH]c4ccc(Cl)cc34)C(C#N)=C(N)O2)cc1 (stereo not given) , if possible.
A: 8

Q: Also N#Cc1c(N)c2c(N)c3c(nc2oc1=O)OC(c1ccccc1)=CC3c1c(-c2ccccc2)[nH]c2ccc(Cl)cc12 (stereo not given) , if possible.
A: 13

Q: Also N#CC1=C(N)OC(c2ccc(Cl)cc2)=CC1c1c(-c2ccccc2)[nH]c2ccc(Cl)cc12 (stereo not given) , if possible.
A: 13

Q: Also Nc1nc(=S)[nH]c2c1C(c1c(-c3ccccc3)[nH]c3ccccc13)C=C(c1ccccc1)O2 (stereo not given) , if possible.
A: 2

Q: Also Cc1ccc(C2=CC(c3c(-c4ccccc4)[nH]c4ccc(C)cc34)c3c(nc[nH]c3=O)O2)cc1 (stereo not given) , if possible.
A: 2

Q: Also Nc1nc(=O)[nH]c2c1C(c1c(-c3ccccc3)[nH]c3ccccc13)C=C(c1ccccc1)O2 (stereo not given) , if possible.
A: 10

Q: Also Cc1ccc(C2=CC(c3c(-c4ccccc4)[nH]c4ccc(Cl)cc34)c3c(nc4oc(=O)c(C#N)c(N)c4c3N)O2)cc1 (stereo not given) , if possible.
A: 5

Q: Also Cc1ccc(C2=CC(c3c(-c4ccccc4)[nH]c4ccccc34)c3c(N)nc(=O)[nH]c3O2)cc1 (stereo not given) , if possible.
A: 5

Q: Also N#CC1=C(N)OC(c2ccc(Cl)cc2)=CC1c1c(-c2ccccc2)[nH]c2ccccc12 (stereo not given) , if possible.
A: 10

Q: Also Cc1ccc2[nH]c(-c3ccccc3)c(C3C=C(c4ccc(Cl)cc4)Oc4[nH]nc(N)c43)c2c1 (stereo not given) , if possible.
A: 2

Q: Also O=c1[nH]cnc2c1C(c1c(-c3ccccc3)[nH]c3ccccc13)C=C(c1ccc(Cl)cc1)O2 (stereo not given) , if possible.
A: 5

Q: Also Cc1ccc(C2=CC(c3c(-c4ccccc4)[nH]c4ccccc34)c3c(nc4oc(=O)c(C#N)c(N)c4c3N)O2)cc1 (stereo not given) , if possible.
A: 8

Q: Also Cc1ccc(C2=CC(c3c(-c4ccccc4)[nH]c4ccc(Cl)cc34)c3c(N)nc(=O)[nH]c3O2)cc1 (stereo not given) , if possible.
A: 0

Q: Also Cc1ccc2[nH]c(-c3ccccc3)c(C3C=C(c4ccccc4)Oc4nc[nH]c(=O)c43)c2c1 (stereo not given) , if possible.
A: 11

---

- Tested on: Escherichia coli
- assay: Antimicrobial activity against Escherichia coli MTCC 723 at 750 ug/ml after 24 hrs by cup plate method
- Type: functional
- testSettings: MTCC 723, 24 h, read-out: IZ
Returns yes if the recorded zone of inhibition at 750 µg/mL is greater than or equal to 8 mm, and no otherwise.

Q: Kindly determine if zone of inhibition at 750 µg/mL recorded for Cc1ccc(C2=CC(c3c(-c4ccccc4)[nH]c4ccc(Cl)cc34)c3c(N)n[nH]c3O2)cc1 (stereo not drawn) is above or exactly 8 mm.
A: no

Q: Also Nc1nc(=O)[nH]c2c1C(c1c(-c3ccccc3)[nH]c3ccc(Cl)cc13)C=C(c1ccccc1)O2 (stereo not drawn) , if possible.
A: yes

Q: Also Cc1ccc(C2=CC(c3c(-c4ccccc4)[nH]c4ccc(C)cc34)c3c(N)n[nH]c3O2)cc1 (stereo not drawn) , if possible.
A: yes

Q: Also Cc1ccc(C2=CC(c3c(-c4ccccc4)[nH]c4ccc(C)cc34)C(C#N)=C(N)O2)cc1 (stereo not drawn) , if possible.
A: no

Q: Also O=c1[nH]cnc2c1C(c1c(-c3ccccc3)[nH]c3ccccc13)C=C(c1ccc(Cl)cc1)O2 (stereo not drawn) , if possible.
A: yes

---

- System: Aspergillus terreus
- assay: Antimicrobial activity against Aspergillus terreus MTCC 1782 at 750 ug/ml after 72 hrs by cup plate method
- Assay type: functional
- testSettings: MTCC 1782, 72 h, read-out: IZ
recordedMetric: zone of inhibition at 750 µg/mL (mm)
Use mm as the unit, but write only the number.

Q: # lookup: zone of inhibition at 750 µg/mL of Cc1ccc(C2=CC(c3c(-c4ccccc4)[nH]c4ccccc34)c3c(nc[nH]c3=O)O2)cc1 (stereo not drawn)
A: 8

Q: Also N#Cc1c(N)c2c(N)c3c(nc2oc1=O)OC(c1ccc(Cl)cc1)=CC3c1c(-c2ccccc2)[nH]c2ccc(Cl)cc12 (stereo not drawn) , if possible.
A: 13

Q: Also O=c1[nH]cnc2c1C(c1c(-c3ccccc3)[nH]c3ccccc13)C=C(c1ccc(Cl)cc1)O2 (stereo not drawn) , if possible.
A: 6

Q: Also Cc1ccc(C2=CC(c3c(-c4ccccc4)[nH]c4ccc(Cl)cc34)c3c(N)nc(=S)[nH]c3O2)cc1 (stereo not drawn) , if possible.
A: 8

Q: Also Nc1nc(=S)[nH]c2c1C(c1c(-c3ccccc3)[nH]c3ccc(Cl)cc13)C=C(c1ccc(Cl)cc1)O2 (stereo not drawn) , if possible.
A: 3

Q: Also Nc1n[nH]c2c1C(c1c(-c3ccccc3)[nH]c3ccccc13)C=C(c1ccccc1)O2 (stereo not drawn) , if possible.
A: 5

Q: Also Cc1ccc(C2=CC(c3c(-c4ccccc4)[nH]c4ccc(Cl)cc34)c3c(N)n[nH]c3O2)cc1 (stereo not drawn) , if possible.
A: 4

Q: Also O=c1[nH]cnc2c1C(c1c(-c3ccccc3)[nH]c3ccccc13)C=C(c1ccccc1)O2 (stereo not drawn) , if possible.
A: 8

meta.source: ChEMBL document CHEMBL2346657
